Test system: DIPGX7 (H3.3 K27M diffuse intrinsic pontine glioma line)
Protocol description: growth inhibition (% activity, log2 RLU normalised to DMSO / staurosporine); higher = more growth inhibition
Settings: 33 µM

Compound	growth inhibition
Cc1cccc(Nc2ccncc2S(=O)(=O)NC(=O)NC(C)C)c1	-0.371%
C=C[C@]1(C)C[C@@H](OC(=O)CS[C@@H]2C[C@H]3CC[C@@H](C2)N3C)[C@]2(C)[C@H](C)CC[C@]3(CCC(=O)[C@H]32)[C@@H](C)[C@@H]1O	3.25%
Nc1nc2[nH]cnc2c(=S)[nH]1	5.75%
Nc1nc2c(ncn2COC(CO)CO)c(=O)[nH]1	-1.01%
Cc1ccc(NC(=O)c2ccc(CN3CCN(C)CC3)cc2)cc1Nc1nc(-c2cccnc2)cs1	8.77%
CC1CNc2c(cccc2S(=O)(=O)N[C@@H](CCCNC(=N)N)C(=O)N2CC[C@@H](C)C[C@@H]2C(=O)O)C1 (some centres undefined)	-1.49%
O=C(O)c1cc(=O)c2c(OCC(O)COc3cccc4oc(C(=O)O)cc(=O)c34)cccc2o1	-1.58%
C[C@@H](O)[C@H]1C(=O)N2C(C(=O)OCOC(=O)C(C)(C)C)=C(SC3CN(C4=NCCS4)C3)[C@H](C)[C@H]12	0.926%
O=c1c(-c2ccc(O)cc2)coc2cc(O)ccc12	-0.191%
